Each item that follows carries a reported IC50.
Target: human CGT (ceramide galactosyltransferase), CHO/CGT lysate (Homo sapiens, UniProt Q16880)
Construct: Full-length human CGT cDNA was cloned into the BamH1/Xho1 site of pcDNA3.1 (+); expressed in transfected cells; host or cells: Chinese hamster ovary (CHO) cells; lysate prepared with M-PER
Sequence (Q16880 21-541): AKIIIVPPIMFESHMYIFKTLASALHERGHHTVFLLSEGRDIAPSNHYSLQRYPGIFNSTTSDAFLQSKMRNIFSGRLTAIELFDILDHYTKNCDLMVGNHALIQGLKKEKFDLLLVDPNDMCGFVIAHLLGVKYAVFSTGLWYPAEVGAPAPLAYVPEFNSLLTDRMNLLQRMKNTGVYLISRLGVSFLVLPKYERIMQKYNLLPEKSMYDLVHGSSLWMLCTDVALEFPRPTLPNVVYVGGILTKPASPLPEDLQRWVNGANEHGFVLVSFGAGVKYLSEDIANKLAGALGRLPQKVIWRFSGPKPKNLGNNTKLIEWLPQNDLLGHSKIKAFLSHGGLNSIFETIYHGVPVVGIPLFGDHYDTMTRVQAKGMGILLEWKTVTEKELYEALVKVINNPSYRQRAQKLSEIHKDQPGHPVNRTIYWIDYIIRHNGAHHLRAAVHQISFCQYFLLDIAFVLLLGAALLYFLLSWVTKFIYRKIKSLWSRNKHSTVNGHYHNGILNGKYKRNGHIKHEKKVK
Experiment: CGT enzyme assay, RapidFire/MS/MS readout (Table 1 ranges with one asterisk *)
Format: biochemical
Conditions: RapidFire method (range with one asterisk *)
Where a name gives a salt, the structure may show the parent alone.

{"columns": ["compound", "IC50"],
 "data": [
  ["NCC1CCN(C(=O)[C@H](NS(=O)(=O)c2ccc3cc(OC4CCCC4)ccc3c2)C(F)(F)c2ccc(-c3ccc(Cl)cc3)cc2)CC1 [Compound 138-2, trifluoroacetate]", "1 to 10 µM"],
  ["CCCCOc1cc(C(F)(F)[C@@H](NS(=O)(=O)c2ccc(OCC3CCCCC3)cc2)C(=O)N2C3CCC2CC(N)C3)ccc1Cl (some centres unmarked)", "1 to 10 µM"],
  ["CC(C)Oc1ccc2cc(S(=O)(=O)N[C@H](C(=O)N3C4CCC3CC(N)C4)C(F)(F)c3ccc(Br)cc3)ccc2c1 (some centres unmarked)", "1 to 10 µM"],
  ["NC1CCN(C(=O)[C@H](NS(=O)(=O)c2ccc(OCC3CCCCC3)cc2)C(F)(F)c2ccc(Oc3ccccc3)cc2)CC1 [Compound 63-2, trifluoroacetate]", "10 to 30 µM"],
  ["NC1CC2CCC(C1)N2C(=O)[C@H](NC(=O)[C@@H](O)c1ccc2cc(OC3CCCC3)ccc2c1)C(F)(F)c1ccc(-c2ccc(Cl)cc2)cc1 (some centres unmarked) [Compound 136-2, trifluoroacetate]", "30 to 100 µM"]
]}
